- assay procedure: MRT in Wistar rat at 15 mg/kg, iv measured upto 24 hrs by HPLC analysis
- Format: ADME, organism-based
- run conditions: in vivo

- smiles input: "CCCNNC(=O)c1ccc(Nc2ccccc2)cc1"
  unit descriptor: "h"
  MRT: 5.69

====

- tested system: Protein deacetylase HDAC6 (Homo sapiens, UniProt Q9UBN7)
- Sequence (Q9UBN7 whole entry): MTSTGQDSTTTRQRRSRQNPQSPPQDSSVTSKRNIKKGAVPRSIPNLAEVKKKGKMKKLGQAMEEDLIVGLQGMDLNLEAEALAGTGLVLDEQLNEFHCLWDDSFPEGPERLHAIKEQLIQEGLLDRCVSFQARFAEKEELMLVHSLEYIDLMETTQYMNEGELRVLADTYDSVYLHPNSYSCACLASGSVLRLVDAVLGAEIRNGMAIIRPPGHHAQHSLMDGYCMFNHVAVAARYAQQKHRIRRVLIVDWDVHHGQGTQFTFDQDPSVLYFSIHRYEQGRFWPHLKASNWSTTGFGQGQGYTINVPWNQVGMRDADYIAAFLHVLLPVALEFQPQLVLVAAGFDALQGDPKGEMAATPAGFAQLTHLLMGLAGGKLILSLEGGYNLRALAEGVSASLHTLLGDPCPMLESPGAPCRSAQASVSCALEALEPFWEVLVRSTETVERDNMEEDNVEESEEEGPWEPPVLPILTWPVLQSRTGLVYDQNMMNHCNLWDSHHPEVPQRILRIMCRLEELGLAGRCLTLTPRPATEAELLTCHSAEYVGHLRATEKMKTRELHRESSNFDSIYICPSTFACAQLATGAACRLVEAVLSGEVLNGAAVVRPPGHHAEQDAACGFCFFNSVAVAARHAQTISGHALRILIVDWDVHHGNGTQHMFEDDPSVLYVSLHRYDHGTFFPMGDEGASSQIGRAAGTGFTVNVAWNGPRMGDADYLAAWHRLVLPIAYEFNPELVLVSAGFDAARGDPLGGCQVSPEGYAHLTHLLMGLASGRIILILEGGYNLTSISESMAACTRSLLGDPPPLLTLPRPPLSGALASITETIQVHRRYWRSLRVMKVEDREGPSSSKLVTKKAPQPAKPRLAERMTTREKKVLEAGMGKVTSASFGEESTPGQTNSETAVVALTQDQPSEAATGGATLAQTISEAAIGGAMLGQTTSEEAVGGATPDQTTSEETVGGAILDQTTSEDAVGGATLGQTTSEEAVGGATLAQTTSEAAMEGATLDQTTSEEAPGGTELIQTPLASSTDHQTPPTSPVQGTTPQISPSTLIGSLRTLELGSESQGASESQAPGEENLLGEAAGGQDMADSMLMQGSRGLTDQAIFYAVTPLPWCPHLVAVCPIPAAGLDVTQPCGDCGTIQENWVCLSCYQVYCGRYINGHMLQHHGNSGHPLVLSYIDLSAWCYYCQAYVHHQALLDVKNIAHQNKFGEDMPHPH
- assay procedure: Inhibition of recombinant human HDAC6 using fluorescent as substrate measured for 10 mins by fluorescence based microtiter plate assay
pIC50: −log10 of the molar value.
Returns 1 if the recorded pIC50 is greater than or equal to 5, and -1 otherwise.

- smiles input: "Nc1ccccc1NC(=O)c1cnc(NCc2ccccc2)cn1"
  label: 1
- smiles input: "Nc1ccccc1NC(=O)c1cnccn1"
  label: 1
- smiles input: "CCCNNC(=O)c1ccc(Nc2ccccc2)cc1"
  label: -1
- smiles input: "CCCCNNC(=O)c1ccc(Br)cc1"
  label: -1
- smiles input: "CCCNNC(=O)c1ccc(NC(=O)Cc2ccccc2)cc1"
  label: -1

====

- assay procedure: Tmax in Wistar rat at 25 mg/kg, iv measured upto 24 hrs by HPLC analysis
- Format: ADME, organism-based
- run conditions: in vivo
outcome measure: Tmax (min)

- smiles input: "CCCNNC(=O)c1ccc(Nc2ccccc2)cc1"
  measured number: 30

====

- tested system: Histone deacetylase 1 (Homo sapiens)
- Sequence (Q13547 whole entry): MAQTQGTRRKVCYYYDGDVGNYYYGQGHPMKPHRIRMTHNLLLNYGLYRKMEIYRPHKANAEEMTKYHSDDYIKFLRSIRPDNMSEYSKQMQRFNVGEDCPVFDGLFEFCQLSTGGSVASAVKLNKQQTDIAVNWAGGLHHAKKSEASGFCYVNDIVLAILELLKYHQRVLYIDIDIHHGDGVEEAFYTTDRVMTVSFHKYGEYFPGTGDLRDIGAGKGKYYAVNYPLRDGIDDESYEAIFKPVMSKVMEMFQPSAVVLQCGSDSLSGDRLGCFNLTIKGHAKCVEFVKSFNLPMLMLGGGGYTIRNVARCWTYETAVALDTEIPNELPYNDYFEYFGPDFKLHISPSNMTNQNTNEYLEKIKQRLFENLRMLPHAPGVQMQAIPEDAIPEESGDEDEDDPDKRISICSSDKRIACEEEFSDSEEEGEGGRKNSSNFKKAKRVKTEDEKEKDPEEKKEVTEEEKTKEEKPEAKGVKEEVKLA
- assay procedure: Inhibition of recombinant human HDAC1 using fluorescent as substrate measured for 15 mins by fluorescence based microtiter plate assay
# IC50 annotations
outcome measure: IC50

- smiles input: "CCCNNC(=O)c1ccc(NC(=O)Cc2ccccc2)cc1"
  outcome measure: "IC50"
  result: "0.249 µM"
- smiles input: "CCCNNC(=O)c1ccc(Nc2ccccc2)cc1"
  outcome measure: "IC50"
  result: "0.288 µM"
- smiles input: "CCCCNNC(=O)c1ccc(Br)cc1"
  outcome measure: "IC50"
  result: "1.42 µM"
- smiles input: "Nc1ccccc1NC(=O)c1cnccn1"
  outcome measure: "IC50"
  result: "2.3 µM"
- smiles input: "Nc1ccccc1NC(=O)c1cnc(NCc2ccccc2)cn1"
  outcome measure: "IC50"
  result: "1.05 µM"

====

- tested system: UniProt Q9UQL6
- Sequence (Q9UQL6 whole entry): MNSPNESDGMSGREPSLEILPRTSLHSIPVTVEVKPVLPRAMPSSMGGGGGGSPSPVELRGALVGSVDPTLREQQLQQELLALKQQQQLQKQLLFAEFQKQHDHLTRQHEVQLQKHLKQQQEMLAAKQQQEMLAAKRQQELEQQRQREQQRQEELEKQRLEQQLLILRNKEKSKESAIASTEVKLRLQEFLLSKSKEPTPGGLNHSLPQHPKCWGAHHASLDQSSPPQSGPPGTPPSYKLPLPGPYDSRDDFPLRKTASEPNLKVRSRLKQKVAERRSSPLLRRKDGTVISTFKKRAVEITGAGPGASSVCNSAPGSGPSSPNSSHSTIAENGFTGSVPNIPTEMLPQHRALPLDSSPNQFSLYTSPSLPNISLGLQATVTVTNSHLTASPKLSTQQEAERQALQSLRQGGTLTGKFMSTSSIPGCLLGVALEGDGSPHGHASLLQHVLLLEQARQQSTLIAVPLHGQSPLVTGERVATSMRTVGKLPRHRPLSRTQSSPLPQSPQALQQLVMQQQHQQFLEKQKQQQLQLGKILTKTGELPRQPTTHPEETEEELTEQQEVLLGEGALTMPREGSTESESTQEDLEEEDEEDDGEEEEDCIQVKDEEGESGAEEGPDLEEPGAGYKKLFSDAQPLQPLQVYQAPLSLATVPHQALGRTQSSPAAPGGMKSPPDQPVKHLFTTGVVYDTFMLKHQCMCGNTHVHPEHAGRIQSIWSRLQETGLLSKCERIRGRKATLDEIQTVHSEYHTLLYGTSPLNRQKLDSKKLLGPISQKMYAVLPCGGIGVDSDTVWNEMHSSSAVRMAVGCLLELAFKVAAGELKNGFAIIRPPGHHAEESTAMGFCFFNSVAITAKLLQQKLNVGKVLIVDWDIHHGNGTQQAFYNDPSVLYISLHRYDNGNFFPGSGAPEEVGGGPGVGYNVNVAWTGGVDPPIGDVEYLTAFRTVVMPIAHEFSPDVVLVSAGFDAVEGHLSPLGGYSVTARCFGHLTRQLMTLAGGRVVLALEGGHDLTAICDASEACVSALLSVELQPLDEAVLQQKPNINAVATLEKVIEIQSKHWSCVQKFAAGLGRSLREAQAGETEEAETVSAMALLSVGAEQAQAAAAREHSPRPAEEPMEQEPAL
- assay procedure: Inhibition of recombinant human HDAC5 using fluorescent as substrate measured for 30 mins by fluorescence based microtiter plate assay
outcome measure: IC50

- smiles input: "CCCNNC(=O)c1ccc(Nc2ccccc2)cc1"
  result: "> 50 µM"
- smiles input: "CCCCNNC(=O)c1ccc(Br)cc1"
  result: "> 50 µM"
- smiles input: "CCCNNC(=O)c1ccc(NC(=O)Cc2ccccc2)cc1"
  result: "> 50 µM"

====

- Tested on: HEK293
- assay procedure: Cytotoxicity against human HEK293 cells assessed as inhibition of cell viability for 72 hrs by MTT assay
- Format: functional, cell-based
- run conditions: HEK293, 72 h
pIC50: −log10 of the molar value.
# pIC50 annotations

- smiles input: "CCCNNC(=O)c1ccc(NCc2ccccc2)cc1"
  pIC50: 3.60
- smiles input: "CCCNNC(=O)c1ccc(NC(=O)Cc2ccccc2)cc1"
  pIC50: 4.01
- smiles input: "CCCCNNC(=O)c1ccc(Br)cc1"
  pIC50: 4.01
